Hello, the source for this data is the MegaScale stability set (Tsuboyama et al. 2023), in case you need it.

B1: EHEE_rd3_0053 (parent)
chain: TYTFKVDNKDQAKKAAKWAKKLGLSFQIEKHGDTFKITVQ

Variants of: B1
Assay: folding stability dG (cDNA display proteolysis); higher = more stable
Conditions: PBS, room temperature
I'd be grateful if you could share measured folding stability dG for these entries.
Answers are plain numbers, in kcal/mol.

Here are 8 variants together with their reported answers.
TYTFKVDNKDQAKKAAKWAKKLMLSFQIEKHGDTFKITVQ | 1.59
TYTFKVDNKDQAMKAAKWAKKLGLSFQIEKHGDTFKITVQ | 2.55
TYTFKVDNKDQAKKAAKWAKKLGLSFQIEKHGDTCKITVQ | 1.93
TYTFKVDNKDQAKKAAKWAKKLGLSFVIEKHGDTFKITVQ | 2.62
TYTFKVDNKDQAKKAAKWAMKLGLSFQIEKHGDTFKITVQ | 2.34
TYTFKVDNKDQAKKAAKWAKKLGLSFQIEKHGDTHKITVQ | 0.715
TYTFKVDNKDQAKKAAKWAKKLGLSFQIEKKGDTFKITVQ | 2.14
TYNFKVDNKDQAKKAAKWAKKLGLSFQIEKHGDTFKITVQ | 1.43

Hey, can you go through the list below and give me folding stability dG for every item?
1. TYTFKVDNKDQAKKAAKWAKKLGLHFQIEKHGDTFKITVQ
2. TCTFKVDNKDQAKKAAKWAKKLGLSFQIEKHGDTFKITVQ

Outgoing:
1. 2.29
2. 3.58

For each listed entry, give its folding stability dG.
1. TYTFKVDNKDQAKKAAKWAKKLGLSFQIEKHVDTFKITVQ
2. TYTFKVDNKWQAKKAAKWAKKLGLSFQIEKHGDTFKITVQ
3. TYTFKVDNKTQAKKAAKWAKKLGLSFQIEKHGDTFKITVQ
4. TYTFKVDNKDVAKKAAKWAKKLGLSFQIEKHGDTFKITVQ

Outgoing:
[1.19, 2.98, 2.73, 1.95]
